Assembled from different publications: pKi for Adenosine receptor A2a (Homo sapiens, UniProt P29274).
pKi: −log10 of the molar value.
Param threshold (7) applies to pKi; output Yes when value >= threshold, No when value < threshold.

* Nc1nc2c(cnn2CCN2CCN(c3ccccc3)CC2)c2nc(-c3ccco3)nn12 | Yes
* CCOc1ccc2c(OCC)cc(-c3ccccc3)nc2n1 | No
* CCNC(=O)[C@H]1O[C@@H](n2cnc3c(Nc4ccc(OCC(=O)Nc5ccc(OC)c(OC)c5)cc4)ncnc32)[C@H](O)[C@@H]1O | No
* Cn1c(=O)c2[nH]c(-c3ccc(S(C)(=O)=O)cc3)c(O)c2n(C)c1=O | No
* C=CCn1c(=O)c2c(nc(Cc3cccs3)n2C)n(Cc2ccco2)c1=O | No
* CCCn1c(=O)c2nc(-c3cc(OCC(=O)c4ccc(C(=O)OCC)cc4)nn3C)[nH]c2n(CCC)c1=O | Yes
* COc1ccc(-n2nc3c(NC(=O)c4ccccc4)nc4ccccc4n3c2=O)cc1 | No
* Oc1cc(-c2ccccc2)nc2nc(N3CCNCC3)ccc12 | No
* Cc1cc(C)n(-c2cc(NC(=O)CN3CC[C@@H](N(C)C)C3)nc(-c3ccc(C)o3)n2)n1 | Yes
* Nc1nc(-c2ccccc2)c2ccccc2n1 | No
* Nc1nc2c(cnn2CCN2Cc3ccc(C(=O)NO)cc3C2)c2nc(-c3ccco3)nn12 | Yes
* CC(C)Oc1ccc(CCCn2ncc3c2nc(N)n2nc(-c4ccco4)nc32)cc1 | Yes
* Nc1nc(NCCc2ccc(OCCCCC(=O)NO)cc2)nc2nc(-c3ccco3)nn12 | Yes
* O=C(O)c1cnc(NC2CC2)n2nc(-c3ccco3)nc12 | No
* CCOC(=O)c1cnc(NC2CCC2)n2nc(-c3ccco3)nc12 | Yes
* CCNC(=O)[C@H]1OC(n2cnc3c(NC(=O)Nc4ccc(S(=O)(=O)NC(C)(C)C)cc4)ncnc32)C(O)C1O (single isomer, unassigned) | No
* COc1ccc(-n2c(-c3sc(NC(=O)c4ccco4)nc3-c3ccccc3)nc3ccccc3c2=O)cc1 | No
* Nc1ncnc2c1ncn2Cc1ccccc1 | No
* CCCn1c(=O)c2[nH]c3cnccc3c2n(CCC)c1=O | No
* COc1ccc(-c2nc(N)c3nc(-c4ccco4)sc3n2)cc1 | Yes
* Nc1nc(-c2ccco2)c2cn[nH]c2n1 | Yes
* CCNC(=O)[C@H]1O[C@@H](n2cnc3c(NNC(=O)c4ccccc4)nc(Cl)nc32)[C@H](O)[C@@H]1O | No
* CCCCn1c(=O)[nH]c2nc(-c3cnn(Cc4cccc(F)c4)c3)[nH]c2c1=O | No
* CCCn1c(=O)c2nc(-c3cnn(Cc4cc(-c5cccc(OC)c5)on4)c3)[nH]c2n(CCC)c1=O | No
* Cc1nc2c(=S)n(Cc3ccccc3)nc(-c3ccncc3)c2c2cc(-c3ccccc3)nn12 | No
* CCCn1cc2c(nc(NC(=O)Cc3cccc4ccccc34)n3nc(-c4ccco4)nc23)n1 | Yes
* COCCOc1ccc(N2CCN(CCNC(=O)c3cc(N)c4nc(-c5ccc(OC)c(OC)c5)cn4c3)CC2)cc1 | No
* CCN(C(C)=O)c1ccc(OC)c2nc(NC(=O)c3cnn(C)c3)sc12 | Yes
* Cc1nc(N)c2nc(-c3ccccc3)sc2n1 | No
* Nc1nc2c(cnn2CCN2CCc3ccc(C(=O)NO)cc3C2)c2nc(-c3ccco3)nn12 | Yes
* Cc1ccc(Nc2nc(N(C)C)c(C(=O)Nc3sc4c(c3C#N)CCCC4)s2)cc1 | No
* COC[C@@H]1CCCN1c1cc(NC(C)=O)nc(-c2ccccn2)n1 | Yes
* Cc1cc(C)n(-c2cc(NC(=O)Cc3ccc(F)c(F)c3)nc(-c3ccc(C)o3)n2)n1 | Yes
* CCC(=O)Nc1nc(-c2ccc(SC)cc2)cc(-c2ccc(SC)cc2)n1 | No
* CCOc1cccc2cc(-c3ccc(OC)cc3OC)c(=O)oc12 | No
* CC1=C(C(=O)OC(C)C)C(c2ncco2)n2c(nc3ccccc32)N1 (racemic) | Yes
* Cc1ccc(N2C(=O)c3cccc(N)c3C2=O)cc1 | No
* CCCn1c(=O)c2nc(-c3cnn(Cc4nc(-c5ccc(OC)cc5)no4)c3)[nH]c2n(CCC)c1=O | No
* COc1ccc(CNC(=O)c2cnc3nc(C)ccc3c2O)cc1 | No

====

pKi: −log10 of the molar value.
Assembled from different publications: pKi for Adenosine receptor A2a (Homo sapiens, UniProt P29274).
Param threshold (6) applies to pKi; output true (1) when value >= threshold, false (0) when value < threshold.

• COc1ccc(-n2nc3c(NC(=O)c4ccncc4)nc4ccccc4n3c2=O)cc1 = true (1)
• Cc1ccc(-c2nc(N)nc3c2cnn3CCCCCC(=O)NO)o1 = true (1)
• Cn1c(=O)c2c(cc(/C=C/c3ccc(Cl)cc3)n2C)n(C)c1=O = true (1)
• CCOC(=O)c1cnc(SC)n2nc(-c3ccco3)nc12 = false (0)
• CC(=O)Nc1cc(-c2cncc(O)c2)nc(-n2nc(C)cc2C)n1 = true (1)
• CCCn1c(=O)c2nc(-c3ccc(N)cc3)[nH]c2n(CCC)c1=O = false (0)
• CCOC(=O)c1cnc(N(C)C)n2nc(-c3ccco3)nc12 = false (0)
• CCCn1c(=O)c2[nH]c(-c3ccc(NC(=O)Cc4ccc(OC)c(OC)c4)cc3)nc2n(CCC)c1=O = false (0)
• CCCn1c(=O)c2[nH]c([C@]34CC[C@](CCC(=O)O)(CC3)CC4)nc2n(CCC)c1=O = false (0)
• Cn1c(=O)c2c(cc(-n3cc(-c4ccc(Cl)cc4)nn3)n2C)n(C)c1=O = false (0)
• c1coc(-c2nc3[nH]cnc3cc2-c2ccncn2)c1 = false (0)

====

Assembled from different publications: pKi for Adenosine receptor A2a (Homo sapiens, UniProt P29274).
pKi: −log10 of the molar value.
attribute.measured: pKi

• Nc1nc(-c2ccco2)c2cnn(Cc3ccc(/C=C/C(=O)NO)cc3)c2n1 = 5.45
• c1ccc(CNc2nc(NCc3ccccc3)n3nc(-c4ccco4)nc3n2)cc1 = 7.69
• Cn1cc2c(nc(NC3C4CC5CC(C4)CC3C5)n3nc(-c4ccco4)nc23)n1 (stereo not given) = 6.07
• Cc1ccc2c(O)c(Cc3ccccc3)cnc2n1 = 5.48

====

pKi: −log10 of the molar value.
Assembled from different publications: pKi for Adenosine receptor A2a (Homo sapiens, UniProt P29274).
attribute.measured: pKi

- CCn1ncc2c1nc(N)n1nc(-c3ccc(Cl)cc3)nc21: 7.08
- CCN(C(C)=O)c1ccc(OC)c2nc(NC(=O)[C@H]3CC[C@@H](NS(=O)(=O)c4cccc(C(F)(F)F)c4)CC3)sc12: 6.96
- CN(CCc1ccc(C(=O)NO)cc1)c1nc(N)n2nc(-c3ccco3)nc2n1: 8.36
- Nc1ccccc1NC(=O)c1ccc(CCn2ncc3c2nc(N)n2nc(-c4ccco4)nc32)cc1: 8.66
- c1coc(-c2nc3[nH]ncc3cc2-c2ccncn2)c1: 5.78
- Oc1ccc(-c2nc(N3CCCCC3)c3nc[nH]c3n2)cc1: 7.00
- Nc1nc(-c2ccco2)c2cnn(Cc3ccc([N+](=O)[O-])cc3)c2n1: 6.92
- CCOC(=O)c1nc(N)nc2nn(C)cc12: 5.70
- CCN(C(C)=O)c1ccc(OC)c2nc(NC(=O)c3ccc(F)cc3)sc12: 7.66
- Cn1cc2c(nc(NCCCO)n3nc(-c4ccco4)nc23)n1: 6.81
- c1coc(-c2nc3nc(NC4CCCCC4)nc(NC4CCCCC4)n3n2)c1: 6.75

====

Assembled from different publications: Ki for Adenosine receptor A2a (Homo sapiens).
attribute.measured: Ki (nM)

- CNC(=O)[C@@]12C[C@@H]1[C@@H](n1cnc3c(N)nc(C#Cc4ccccc4)nc31)[C@H](O)[C@@H]2O: 1200
- CSc1nc2nc3c(c(O)n2n1)CN(Cc1ccccc1)CC3: 708
- CCCn1c(=O)c2[nH]c(-c3ccc(OCC(=O)N4CCN(c5ccccc5Cl)CC4)cc3)cc2n(C)c1=O: 224
- CCCn1c(=O)c2[nH]c(-c3ccc(OCC(=O)Nc4ccc(OCc5ccccc5)cc4)cc3)cc2n(CCC)c1=O: 18.6

====

Assembled from different publications: Ki for Adenosine receptor A2a (Homo sapiens, UniProt P29274).
# note: boundary value 60 nM maps to NO; Ki below it maps to YES

- CCCn1c(=O)c2[nH]c(-c3cc(OCC(=O)Nc4ccc(C)cn4)nn3C)nc2n(CCC)c1=O: NO
- COc1ccc(NC(=O)Nc2nc3cn(CCc4ccccc4)cc3c3nc(-c4ccco4)nn23)cc1: NO
- CC(=O)Nc1cc(-c2cccc(OC3CCN(C)C3)c2)nc(-n2nc(C)cc2C)n1 (stereo not given): YES
- CC(C)OCc1cccc(CNC(=O)c2nc(N)nc3c(F)cccc23)n1: YES
- C[C@H](Nc1nc2nn(C)cc2c2nc(-c3ccco3)nn12)c1ccccc1: YES
- COCCCn1c(=O)n(C)c(=O)c2[nH]c(-c3ccc(OCC(=O)O)cc3)cc21: NO
- O=C(Nc1ccccc1)Nc1nc(-c2ccccc2)nc2nn(CCc3ccccc3)cc12: NO
- Nc1nc(-c2ccc(OCc3ccccc3)cc2)cn2c(=O)n(-c3ccccc3)nc12: NO
- CCc1nc(-c2ccccn2)c2sccc2n1: YES
- CNc1nc(NC(=O)c2ccccc2)n2nc(-c3ccco3)nc2n1: NO
